Target: human metabotropic glutamate receptor mGluR5 (Homo sapiens, UniProt P41594)
Sequence (P41594 21-1212): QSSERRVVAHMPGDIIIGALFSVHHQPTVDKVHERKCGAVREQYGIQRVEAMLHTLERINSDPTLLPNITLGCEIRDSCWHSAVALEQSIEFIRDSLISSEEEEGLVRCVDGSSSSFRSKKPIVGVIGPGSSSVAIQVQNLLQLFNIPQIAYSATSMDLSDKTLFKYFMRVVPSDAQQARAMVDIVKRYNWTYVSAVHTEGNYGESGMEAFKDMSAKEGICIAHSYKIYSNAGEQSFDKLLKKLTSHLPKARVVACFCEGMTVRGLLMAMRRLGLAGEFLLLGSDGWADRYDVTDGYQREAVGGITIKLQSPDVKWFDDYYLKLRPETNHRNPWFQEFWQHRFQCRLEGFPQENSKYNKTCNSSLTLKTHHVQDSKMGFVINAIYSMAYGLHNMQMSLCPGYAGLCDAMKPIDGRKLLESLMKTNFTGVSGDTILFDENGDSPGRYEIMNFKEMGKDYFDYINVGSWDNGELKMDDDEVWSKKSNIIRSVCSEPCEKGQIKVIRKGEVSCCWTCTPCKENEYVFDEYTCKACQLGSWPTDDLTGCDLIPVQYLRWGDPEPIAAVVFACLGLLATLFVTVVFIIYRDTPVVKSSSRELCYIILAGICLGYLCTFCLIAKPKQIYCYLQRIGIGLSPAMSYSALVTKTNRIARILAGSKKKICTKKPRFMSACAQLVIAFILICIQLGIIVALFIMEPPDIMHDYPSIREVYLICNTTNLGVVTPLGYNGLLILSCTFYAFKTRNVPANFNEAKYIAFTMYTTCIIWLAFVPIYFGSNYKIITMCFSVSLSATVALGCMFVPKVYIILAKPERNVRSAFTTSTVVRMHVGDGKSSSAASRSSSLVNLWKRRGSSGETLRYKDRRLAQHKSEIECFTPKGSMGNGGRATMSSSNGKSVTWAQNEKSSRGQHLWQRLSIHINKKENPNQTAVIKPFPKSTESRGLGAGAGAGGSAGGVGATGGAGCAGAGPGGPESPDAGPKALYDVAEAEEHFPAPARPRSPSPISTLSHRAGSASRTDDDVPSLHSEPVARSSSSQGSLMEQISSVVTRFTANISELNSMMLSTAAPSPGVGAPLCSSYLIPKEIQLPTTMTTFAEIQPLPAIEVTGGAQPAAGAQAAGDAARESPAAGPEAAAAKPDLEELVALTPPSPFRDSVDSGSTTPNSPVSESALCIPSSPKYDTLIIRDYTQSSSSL
Experiment: Cytosolic calcium studies with stably transfected cells (h5CHO), functional assay of mGluR5 receptors
Conditions: Table A1; positive modulators; h5CHO cells preincubated with modulator, stimulated by an EC20 concentration of L-glutamate; read-out: hEC50
# strict inequality: EC50 < 200 nM yields 1, everything else yields 0

[[record]]
molecule = "CCCN1CCO[C@@H]2c3cc(C#Cc4cccc(F)c4)cnc3CC[C@@H]21 (racemic) [Example 19]"
measured_on = "human metabotropic glutamate receptor mGluR5 (Homo sapiens, UniProt P41594)"
discrete_label = 1

[[record]]
molecule = "CCCN1CCO[C@@H]2c3cc(C#Cc4ccccc4F)cnc3CC[C@@H]21 (racemic) [Example 18]"
measured_on = "human metabotropic glutamate receptor mGluR5 (Homo sapiens, UniProt P41594)"
discrete_label = 0

[[record]]
molecule = "COC(=O)N1CC[C@H]2c3ncc(C#Cc4ccccc4)cc3CC[C@H]21 [Example 71]"
measured_on = "human metabotropic glutamate receptor mGluR5 (Homo sapiens, UniProt P41594)"
discrete_label = 0

[[record]]
molecule = "Cn1ncc2c1-c1cc(C#Cc3ccccc3)cnc1CC2 [Example 28]"
measured_on = "human metabotropic glutamate receptor mGluR5 (Homo sapiens, UniProt P41594)"
discrete_label = 1

[[record]]
molecule = "CN(C)S(=O)(=O)N1CCc2ncc(C#Cc3ccccc3)cc2C1 [Example 52]"
measured_on = "human metabotropic glutamate receptor mGluR5 (Homo sapiens, UniProt P41594)"
discrete_label = 0


----------
Parameter EC50: see the listing below.
Molecular target: mGluR5 receptors (Rattus norvegicus, UniProt P31424)
Construct: Primary astrocyte cultures are prepared from cortices of newborn rats; endogenous in cells; host or cells: primary cortical astrocytes from Sprague-Dawley rat pups (2-4 d old)
Sequence (P31424 21-1203): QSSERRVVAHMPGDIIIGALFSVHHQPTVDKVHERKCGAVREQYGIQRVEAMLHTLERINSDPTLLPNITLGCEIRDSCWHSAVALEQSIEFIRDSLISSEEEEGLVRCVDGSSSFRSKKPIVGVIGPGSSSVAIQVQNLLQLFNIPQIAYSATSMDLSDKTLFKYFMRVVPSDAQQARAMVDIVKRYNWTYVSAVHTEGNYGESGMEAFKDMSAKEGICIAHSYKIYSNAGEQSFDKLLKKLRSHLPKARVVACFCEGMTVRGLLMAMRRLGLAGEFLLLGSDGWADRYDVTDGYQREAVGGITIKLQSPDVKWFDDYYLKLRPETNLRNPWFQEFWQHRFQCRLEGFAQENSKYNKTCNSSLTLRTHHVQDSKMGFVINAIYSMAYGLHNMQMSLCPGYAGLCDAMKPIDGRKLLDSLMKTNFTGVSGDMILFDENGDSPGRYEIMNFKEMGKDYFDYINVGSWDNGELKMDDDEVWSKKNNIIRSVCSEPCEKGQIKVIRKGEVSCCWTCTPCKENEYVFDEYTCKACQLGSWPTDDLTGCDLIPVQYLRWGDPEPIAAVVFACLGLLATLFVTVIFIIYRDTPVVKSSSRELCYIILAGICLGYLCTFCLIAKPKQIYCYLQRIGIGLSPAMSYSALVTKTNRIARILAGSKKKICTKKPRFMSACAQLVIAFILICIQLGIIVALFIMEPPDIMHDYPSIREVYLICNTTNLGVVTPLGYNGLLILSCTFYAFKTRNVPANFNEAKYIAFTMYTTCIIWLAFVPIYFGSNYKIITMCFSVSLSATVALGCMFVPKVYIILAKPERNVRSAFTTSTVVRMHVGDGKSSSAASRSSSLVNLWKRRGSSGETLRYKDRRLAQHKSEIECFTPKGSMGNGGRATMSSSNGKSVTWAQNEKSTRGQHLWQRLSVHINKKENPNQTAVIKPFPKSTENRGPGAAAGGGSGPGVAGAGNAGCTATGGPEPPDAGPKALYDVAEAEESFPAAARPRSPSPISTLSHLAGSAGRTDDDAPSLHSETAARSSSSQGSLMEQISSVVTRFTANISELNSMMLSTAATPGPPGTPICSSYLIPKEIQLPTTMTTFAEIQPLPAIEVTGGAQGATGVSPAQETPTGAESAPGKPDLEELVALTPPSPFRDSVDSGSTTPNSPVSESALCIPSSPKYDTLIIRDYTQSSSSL
Experiment: Cytosolic calcium studies with astrocytes (FLIPR), functional assay of mGluR5 receptors
Type: cell-based
Details: Table A1, positive modulators, fixed concentration of quisqualate (normally 10-30 nM), read-out: rEC50
Readout type: EC50 (nM)

[[record]]
compound = "CCCN1CCO[C@@H]2c3cc(C#Cc4ccccc4)cnc3CC[C@@H]21 (racemic) [Example 15]"
measured_on = "mGluR5 receptors (Rattus norvegicus, UniProt P31424)"
observed_result = 175

[[record]]
compound = "CCOC(=O)C(=O)N1CCc2ncc(C#Cc3ccccc3)cc2C1"
measured_on = "mGluR5 receptors (Rattus norvegicus, UniProt P31424)"
observed_result = 22.1

[[record]]
compound = "O=C1OC2(CCCc3ncc(C#Cc4cccc(F)c4)cc32)CN1c1ccccc1 (racemic)"
measured_on = "mGluR5 receptors (Rattus norvegicus, UniProt P31424)"
observed_result = 88.3

[[record]]
compound = "CN(C)C(=O)N1CCO[C@@H]2c3cc(C#Cc4ccccc4)cnc3CC[C@@H]21 (racemic)"
measured_on = "mGluR5 receptors (Rattus norvegicus, UniProt P31424)"
observed_result = 427


----------
Molecular target: human metabotropic glutamate receptor mGluR5 (Homo sapiens, UniProt P41594)
Test: Cytosolic calcium studies with stably transfected cells (h5CHO), functional assay of mGluR5 receptors
Details: Table A2; negative modulation; compounds added 5 minutes before L-quisqualic acid (~80% of the maximal signal); h5CHO cells; read-out: hIC50
Readout type: IC50 (nM)

[[record]]
compound = "CN1CCC2Cc3ncc(C#Cc4ccccc4)cc3CN2C1=O (racemic)"
observed_result = 190

[[record]]
compound = "COC(=O)N1Cc2cc(C#Cc3cccc(F)c3)cnc2[C@H]2CCCC[C@H]21 (racemic)"
observed_result = 1320

[[record]]
compound = "COC1CC(C)(C)Oc2ncc(C#Cc3cn4ccccc4n3)cc21 (racemic)"
observed_result = 225

[[record]]
compound = "Cc1cccc(C#Cc2cnc3c(c2)CS(=O)(=O)CC3)c1"
observed_result = 75.5

